System: Phytophthora infestans
Type: in vivo
Conditions: conc. in the spray liquor 0.06 ppm; tomato leaves infected next day with zoospore suspension; evaluated after 6 days; untreated control 89% infection
PARAMETER: Efficacy in % of the untreated control (%)
Express it in %; write the number only.

The following compounds have reported results that may help.
{"COMPOUND": "CC(C)OC(=O)NC(C(=O)NC(C)c1nc2ccc(F)cc2s1)C(C)C (centres unmarked) [Compound IV/1]", "ASSAY VALUE": 21}
{"COMPOUND": "CNC(=O)C(=NOC)c1ccccc1COc1cc(C)ccc1C [Compound III]", "ASSAY VALUE": 0}
{"COMPOUND": "CON=C(C(=O)OC)c1ccccc1COc1ccccc1C [Compound II]", "ASSAY VALUE": 10}

Inquiry: Consider the compound COC(=O)N(OC)c1ccccc1COc1ccn(-c2ccc(Cl)cc2)n1 [Compound I.32] and give its measured Efficacy in % of the untreated control.
Reply text: 10

Inquiry: What do we get for COC(=O)N(OC)c1ccccc1COc1ccn(-c2ccc(C)cc2)n1 [Compound I.38] ?
Reply text: 0
